Reported normalized growth by item:
- Protocol: chemical genetic growth profiling, strain panel (AID 1159580);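 further: tested at 20 µM; growth read once vehicle control cultures reached saturation at 30 °C; 1 = growth at the plate median or of vehicle wells; lower values mean less growth of the strain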
- Experimental context: S. cerevisiae deletion strains, growth OD, locus YOR001W, strain rrp6, hits give low values
Among all 5,500 compounds or so, about 2,000 (36%) were called active. About 18% were inconclusive and are not listed. This is one part of the list.

{"columns": ["Compound", "normalized growth"],
 "data": [
  ["CC[C@H]1OC(=O)[C@H](C)[C@@H](O[C@H]2C[C@@](C)(OC)[C@@H](O)[C@H](C)O2)[C@H](C)[C@@H](O[C@@H]2O[C@H](C)C[C@H](N(C)C)[C@H]2O)[C@](C)(O)C[C@@H](C)[C@@H]2N[C@@H](COCCOC)O[C@H]([C@H]2C)[C@]1(C)O", 0.986],
  ["O=C(CCc1ccc(O)cc1)c1c(O)cc(O)cc1O[C@@H]1O[C@H](CO)[C@@H](O)[C@H](O)[C@H]1O", 1.04],
  ["COc1ccc(C(=O)c2ccccc2)c(O)c1O", 0.955],
  ["CCOc1ccc(C(=O)c2cc(O)c(OC)c(OC)c2O)cc1", 0.992],
  ["CCOC([O-])=Nc1c[n+](N2CCOCC2)no1", 1.01],
  ["CC1=C(O)C(=O)C=C2C1=CC=C1[C@@]2(C)CC[C@@]2(C)[C@@H]3C[C@](C)(C(=O)O)CC[C@]3(C)CC[C@]12C", 0.678],
  ["CC(=O)Oc1cc2c(c(C)c1OC(C)=O)CC1OC13C2(C)CCC1(C)C2CC(C)(C(=O)O)CCC2(C)CCC13C (stereo not drawn)", 1.02],
  ["COc1c2c(cc3c1OCO3)C13C=C[C@H](OC)CC1N(C2)CC3O (stereo partly drawn)", 1.05]
]}
